# System: KM12 colon
# MEASUREMENT_DESCRIPTION: NCI tumour cell line growth inhibition, 48 h
Listing: TGI of selected compounds
Numeric only. Scale: µM

Some compounds with recorded TGI:
# COMPOUND, TEST_TARGET, MEASURED_ENDPOINT, UNIT_TAG, OBSERVED_RESULT
measured = [
    ("CN1CCC23c4c5ccc(Oc6nnnn6-c6ccccc6)c4OC2c2[nH]c4ccccc4c2CC3(O)C1C5 (centres undefined)", "KM12 colon", "TGI", "µM", 7.68),
    ("CN(C)CCCn1c2c(c3ccccc3c1=O)C(=O)c1ccccc1-2", "KM12 colon", "TGI", "µM", 17.7),
    ("CC(=O)OC1C=C(C=O)C(O)(C=O)C2(C)CCCC(C)(C)C12 (centres undefined)", "KM12 colon", "TGI", "µM", 5.14),
]

Bench note: what TGI did O=C(/C=C/c1cccc([N+](=O)[O-])c1)N1CCN(CCOC(c2ccccc2)c2ccccc2)CC1 show? 87.8

Bench note: what TGI did CCCN(CCc1ccc(-c2ccccc2)cc1)CCc1ccc2n[nH]nc2c1 show? 34.1
